TESTED SYSTEM: T1, ZFP SBS#646 (synthetic)
T1 chain: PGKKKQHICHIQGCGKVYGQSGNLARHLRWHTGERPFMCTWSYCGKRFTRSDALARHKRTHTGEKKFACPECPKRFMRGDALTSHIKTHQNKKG
TEST: EMSA
ASSAY SETUP: tags: MBP fusion
MEASURE NAME: pKd
Give bare numbers, as −log10 of the molar value.

Using the record for TTGGTGGAAG (dsDNA) DNA 1: TTGGTGGAAG DNA 2: CTTCCACCAA , state its measured pKd.
7.46
